# Assay explanation: Half life in Sprague-Dawley rat at 3 mg/kg, po
# Type: ADME, organism-based
# Set-up: dose 3 mg/kg, route oral
# Recorded conditions: in vivo
Experimental readout: half-life (min)
One number for each entry, in min.

Provide half-life for all items below, preserving their order.
1. O=C1CC2(CCCC2)CC(=O)N1CCCCN1CCN(c2ncccn2)CC1 [BUSPIRONE]
2. CC(=O)Nc1cccc(N2CCN(CCCCNS(=O)(=O)c3ccc(C)cc3)CC2)c1
3. CC(=O)Nc1cccc(N2CCN(CCCCNS(=O)(=O)CC(C)C)CC2)c1
4. COc1ccccc1N1CCN(CCCCNS(=O)(=O)c2ccc(C)cc2)CC1
5. CC(=O)Nc1cccc(N2CCN(CCCCNS(=O)(=O)CC3CCCCC3)CC2)c1 [NALUZOTAN]
6. CC(=O)Nc1cccc(N2CCN(CC3CCN(S(=O)(=O)CC4CCCCC4)CC3)CC2)c1

Given back:
1. 60
2. 198
3. 210
4. 60
5. 120
6. 45

====

# Assayed target: 5-hydroxytryptamine receptor 7 (Homo sapiens, UniProt P34969)
# Sequence (P34969 whole entry): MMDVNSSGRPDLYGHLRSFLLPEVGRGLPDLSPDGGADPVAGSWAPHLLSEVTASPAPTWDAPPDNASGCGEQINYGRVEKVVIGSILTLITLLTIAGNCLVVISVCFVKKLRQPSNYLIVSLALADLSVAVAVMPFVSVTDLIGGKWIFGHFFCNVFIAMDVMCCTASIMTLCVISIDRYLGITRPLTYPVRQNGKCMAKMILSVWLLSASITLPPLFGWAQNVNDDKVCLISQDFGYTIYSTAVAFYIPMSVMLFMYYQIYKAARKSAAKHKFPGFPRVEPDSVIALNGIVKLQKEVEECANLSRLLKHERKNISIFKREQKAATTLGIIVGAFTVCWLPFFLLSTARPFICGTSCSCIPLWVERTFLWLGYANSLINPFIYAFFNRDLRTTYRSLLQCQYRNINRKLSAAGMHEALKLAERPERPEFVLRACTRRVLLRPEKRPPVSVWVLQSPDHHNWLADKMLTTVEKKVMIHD
Experimental readout: Ki (µM)
One number for each entry, in µM.

Asked: Fill in Ki for `CC(=O)Nc1cccc(N2CCN(CCCCNS(=O)(=O)CC3CCCCC3)CC2)c1` tested with 5-hydroxytryptamine receptor 7 (Homo sapiens, UniProt P34969).
Given back: 0.7

====

# Assay explanation: Binding affinity to neuropeptide receptor by radioligand binding assay
Experimental readout: Ki

Asked: Report measured Ki; entry is `CC(=O)Nc1cccc(N2CCN(CCCCNS(=O)(=O)CC3CCCCC3)CC2)c1`
Given back: > 2000 nM

====

# Assayed target: UniProt:P22909
# Sequence (P22909 whole entry): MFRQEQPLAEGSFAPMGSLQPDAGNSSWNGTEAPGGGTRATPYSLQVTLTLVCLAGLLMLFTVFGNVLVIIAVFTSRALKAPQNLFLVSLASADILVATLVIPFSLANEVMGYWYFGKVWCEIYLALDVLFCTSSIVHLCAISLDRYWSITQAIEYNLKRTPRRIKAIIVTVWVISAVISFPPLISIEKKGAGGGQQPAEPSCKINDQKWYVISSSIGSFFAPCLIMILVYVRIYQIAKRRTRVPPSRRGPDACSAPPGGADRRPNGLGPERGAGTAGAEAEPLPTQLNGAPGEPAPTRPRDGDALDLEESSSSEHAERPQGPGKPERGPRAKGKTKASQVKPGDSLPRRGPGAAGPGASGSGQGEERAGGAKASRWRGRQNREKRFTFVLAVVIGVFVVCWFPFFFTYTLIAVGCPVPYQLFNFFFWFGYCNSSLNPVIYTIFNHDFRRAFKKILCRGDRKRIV
# Assay explanation: Displacement of [3H]RX 821002 from Adrenergic alpha-2a receptor in rat cerebral cortex cells at 1 uM
# Type: cell-based
Experimental readout: Activity

Example cases with answers are listed next.
Asked: Give Activity for `CC(=O)Nc1cccc(N2CCN(CC3CCN(S(=O)(=O)CC4CCCCC4)CC3)CC2)c1`
Given back: 13%

Asked: Fill in reported Activity for this entry: `CCC(=O)Nc1cccc(N2CCN(CCCCNS(=O)(=O)c3ccc(C)cc3)CC2)c1`
Given back: 31%

Asked: For the molecule `Cc1ccc(S(=O)(=O)NCCCCN2CCN(c3cccc(NC(=O)C4CC4)c3)CC2)cc1` , give its reported Activity.
Given back: 10%

Report Activity for each item below.
1. Cc1ccc(S(=O)(=O)NCCCCN2CCN(c3cccc(NC(=O)C(C)C)c3)CC2)cc1
2. Cc1ccc(S(=O)(=O)NCCCCN2CCN(c3cccc(NS(=O)(=O)C(C)C)c3)CC2)cc1
3. CC(=O)Nc1cccc(N2CCN(CCCCNS(=O)(=O)c3ccc(F)cc3)CC2)c1
4. O=C(Nc1cccc(N2CCN(CCCCNS(=O)(=O)CC3CCCCC3)CC2)c1)C1CC1
5. Cc1ccc(S(=O)(=O)NCCCCN2CCN(c3cccc(NS(C)(=O)=O)c3)CC2)cc1
6. CC(=O)Nc1cccc(N2CCN(CCCCN(C)S(=O)(=O)CC(C)C)CC2)c1

Given back:
1. < 10%
2. 12%
3. < 10%
4. < 10%
5. 21%
6. 16%

====

# Assay explanation: Cmax in Beagle dog at 3 mg/kg, po
# Assay type: ADME, organism-based, Canis lupus familiaris
# Design: dose 3 mg/kg, route oral
# Recorded conditions: in vivo
Experimental readout: Cmax (ng/mL)
One number for each entry, in ng/mL.

Asked: Identify the reported Cmax for the following entry. `CC(=O)Nc1cccc(N2CCN(CCCCNS(=O)(=O)CC(C)C)CC2)c1`
Given back: 600

Asked: Kindly indicate its recorded Cmax. Item: `CC(=O)Nc1cccc(N2CCN(CCCCNS(=O)(=O)CC3CCCCC3)CC2)c1`
Given back: 174

Next molecule, Cmax to be filled in.
Asked: Report measured Cmax; entry is `O=C1CC2(CCCC2)CC(=O)N1CCCCN1CCN(c2ncccn2)CC1`
Given back: 146
